I'd be grateful if you could share measured GI50 for these entries.
Tested on: U-251
Experiment: NCI tumour cell line growth inhibition, 48 h
Active and inactive are the calls of the source. No stated cut-off is given here; in the data, active = GI50 up to about 1.1 µM and inactive = higher.

Some solved cases for reference:
{"Compound": "O=C1CSC2(CC(/C=C/c3cccs3)=NN2c2cccc(S(=O)(=O)O)c2)N1c1nc2ccccc2s1 (stereo unspecified)", "GI50": "65.6 µM (inactive)"}
{"Compound": "C=C(C=O)[C@@H]1C2OC(=O)C(=C)[C@@H]2CC(O)[C@@]1(C)CC (stereo partly specified)", "GI50": "11.7 µM (inactive)"}
{"Compound": "O=C1OC(c2ccccc2)(c2ccccc2)c2ccc3ccc(F)cc3c21", "GI50": "77.1 µM (inactive)"}
{"Compound": "O=c1ccn([C@@H]2C[C@H](CO)C[S+]([O-])C2)c(=O)[nH]1 (stereo partly specified)", "GI50": "> 100 µM (inactive)"}

Provide GI50 values for the following items, in order.
1. COc1ccc(OC)c(C(=O)c2cccc(C(=O)c3cc(OC)ccc3OC)n2)c1
2. COc1ccc(/C=C2\C(=O)N(NC(C)=O)c3ccccc32)cc1
3. Nc1c(-c2ccc(Cl)cc2)[n+]([O-])c2ccccc2[n+]1[O-]
4. CC1(C)COC(c2ccc(C(=O)c3ccc(Cl)cc3)cc2)=N1
5. COc1ccc(/C(C)=N/NC(=S)N(C)C)c(O)c1
6. CC1=C(C(=O)NCc2ccccc2)C(c2ccc(C3C(C(=O)NCc4ccccc4)=C(C)NC(C)=C3C(=O)NCc3ccccc3)cc2)C(C(=O)NCc2ccccc2)=C(C)N1
7. O=C(O)/C(Cl)=C(\Cl)C(=O)c1ccccc1

Data returned:
27.4 µM (inactive)
> 100 µM (inactive)
62.2 µM (inactive)
> 100 µM (inactive)
7.83 µM (inactive)
3.96 µM (inactive)
> 100 µM (inactive)

###

Test system: DLD-1
Assay: NCI tumour cell line growth inhibition, 48 h
The source made the active and inactive calls. Cut-off read from the data, not from the text of the source: active = GI50 up to about 1.1 µM and inactive = higher.
Please reply with one of these outcomes: TRUE for active, FALSE for inactive

Previously resolved entries follow.
{"Compound": "C[C@]1(CO)CCC[C@@]2(C)C1CC[C@H]1CC3C[C@]12CC[C@]3(C)O (stereo partly drawn)", "Assigned category": "FALSE"}
{"Compound": "CCCCCCCCCCCCCC/C(C(=O)OC)=C(/O)C(=O)OCC", "Assigned category": "FALSE"}
{"Compound": "O=C1NC2C(CCO)CC=C[C@H]2c2cc3c(cc21)OCO3 (stereo partly drawn)", "Assigned category": "FALSE"}
{"Compound": "CCN(CC)CCCNC(=O)Cc1ccccc1Nc1c(Cl)cccc1Cl", "Assigned category": "FALSE"}
{"Compound": "COC(=O)c1cc(-c2ccc(OC)c(OC)c2)oc1-c1ccc(OC)c(OC)c1", "Assigned category": "FALSE"}

Data request: Recorded call for CCOC(=O)Oc1c(OC)cc(C(=O)NC2CCc3cc(OC)c(OC)c(OC)c3-c3ccc(SC)c(=O)cc32)cc1OC (stereo not drawn) ?
Data returned: TRUE

Data request: Recorded call for CCOc1ccc2nc(NC(=O)C(=O)C(C(=O)c3ccccc3-c3ccccc3)C3OC(=O)c4ccccc43)sc2c1 (stereo not drawn) ?
Data returned: FALSE

Data request: Recorded call for COC(=O)C1=CC(=O)C(C(=O)Nc2ccc(OC)cc2)C(c2ccccc2)O1 (stereo not drawn) ?
Data returned: FALSE

Data request: Recorded call for Cc1ccc(C)c(N2C(=O)C(=O)C(c3nc4ccccc4o3)/C(=N\NC(=O)c3ccccc3O)C2=O)c1 (stereo not drawn) ?
Data returned: FALSE

Data request: Recorded call for CC(C)c1cccc(=O)c(O)c1 ?
Data returned: FALSE

Data request: Recorded call for CCOC(=O)c1sc(Nc2cc(Cl)ccc2Cl)nc1C ?
Data returned: FALSE

Data request: Recorded call for O=C(O)Cc1cc(=O)[nH]c2c1/C(=N/O)CCC2 ?
Data returned: FALSE

Data request: Recorded call for C=CC1(NS(=O)(=O)c2ccc(C)cc2)CCC(C(C)(C)C)CC1 (stereo not drawn) ?
Data returned: FALSE

Data request: Recorded call for Cn1c(/C=C/CO)c(CO)c2c1C(=O)C=C(N1CC1)C2=O ?
Data returned: TRUE

Data request: Recorded call for CCOC(=O)c1ccc(NC(=O)SCCC(=O)O)cc1 ?
Data returned: FALSE

Data request: Recorded call for Nc1ccn(C2OC(CO)C(O)C2O)c(=O)n1 (stereo not drawn) ?
Data returned: FALSE

Data request: Recorded call for CCOC(=O)c1ccc(/N=N\c2ccc(N(CCC#N)CCC#N)cc2C)cc1 ?
Data returned: FALSE

Data request: Recorded call for Cc1cc(C)c(C2[C@H]3C(=O)N(c4ccc(Cc5ccc(N6C(=O)[C@@H]7ON(c8ccccc8)C(c8c(C)cc(C)cc8C)[C@@H]7C6=O)cc5)cc4)C(=O)[C@H]3ON2c2ccccc2)c(C)c1 (stereo partly drawn) ?
Data returned: FALSE

Data request: Recorded call for CN1N=C2NCCNC3=NN(C)/C(=N/CC/N=C/1S2)S3 ?
Data returned: FALSE

Data request: Recorded call for O=C(NCCCN1CCN(CCCNC(=O)Nc2cc(Cl)ccc2Cl)CC1)Nc1cc(Cl)ccc1Cl ?
Data returned: FALSE

Data request: Recorded call for Cc1cc(NS(=O)(=O)c2ccc(NC(=O)c3cccc4c(Nc5ccc(S(=O)(=O)Nc6cc(C)on6)cc5)c5ccc(Cl)cc5nc34)cc2)no1 ?
Data returned: FALSE

Data request: Recorded call for CN(CCCCN)c1ccc2c(=O)[nH][nH]c(=O)c2c1 ?
Data returned: FALSE

Data request: Recorded call for CC(C)(c1ccccc1)c1ccc(OC#N)cc1 ?
Data returned: FALSE

###

System: OVCAR-4
Assay: NCI tumour cell line growth inhibition, 48 h
Active and inactive are the calls of the source. Rule as the data show it: active = GI50 up to about 1.1 µM and inactive = higher.
I'd be grateful if you could share measured GI50 for these entries.

{"Compound": "NC(=O)CC(N/C=C1/N=C(c2ccccc2)OC1=O)C(=O)O (stereo not drawn)", "GI50": "> 100 µM (inactive)"}
{"Compound": "CNC(=S)N/N=C/c1ccc([N+](=O)[O-])s1", "GI50": "> 10 µM (inactive)"}
{"Compound": "C=C1[C@H](OCC(C)C)[C@@H](OC(=O)C(C)CC)[C@@H](O)C(C)(C)/C=C/[C@H](C)C(=O)[C@@]2(O)C[C@H](C)[C@H](O)[C@@H]2[C@H]1OC(=O)C(C)CC (stereo partly drawn)", "GI50": "5.45 µM (inactive)"}
{"Compound": "c1ccc2c3nnc(c2c1)SCCCSc1nnc(c2ccccc12)SCCCS3", "GI50": "23.4 µM (inactive)"}
{"Compound": "CC1(C)[C@H]2CC[C@@]13C(=O)N1C(=O)O[C@@H]([C@H]1Cl)C(Cl)(COCc1ccccc1)C(=O)OCCO[C@H]3C2 (stereo partly drawn)", "GI50": "40.6 µM (inactive)"}

Provide GI50 values for the following items, in order.
1. O=C1C(Cl)=C(N[C@@H](Cc2ccccc2)C(=O)OCc2ccccc2)C(=O)c2c(O)ccc(O)c21
2. CCC(=O)NCCc1c2c3c(ccnc3c3ncsc13)-c1ccccc1N2
3. Cc1cc2nc3c(=O)n(C)c(=O)nc-3n(-c3ccc(Cl)cc3)c2cc1C

Data returned:
1: 3.31 µM (inactive); 2: 30.4 µM (inactive); 3: 5.16 µM (inactive)

###

I'd be grateful if you could share measured GI50 for these entries.
System: SK-MEL-2
Experiment: NCI tumour cell line growth inhibition, 48 h
The source made the active and inactive calls. No stated cut-off is given here; in the data, active = GI50 up to about 1.1 µM and inactive = higher.

Some solved cases for reference:
{"Compound": "CC[N+]1(C)CCC(O)(c2ccc(OC)cc2)C(C(=O)c2ccc(OC)cc2)C1 (stereo unspecified)", "Parameter": "GI50", "Recorded result": "18.8 µM (inactive)"}
{"Compound": "O=C(CC(C(=O)O)N1CCOCC1)c1ccccc1 (stereo unspecified)", "Parameter": "GI50", "Recorded result": "19.1 µM (inactive)"}

Provide GI50 values for the following items, in order.
1. CC(=O)OCc1cc(=O)n(C)c2c3c4c(cc12)c(C)cc(=O)n4CO3
2. CCOC(=O)c1sc(Nc2cc(Cl)ccc2Cl)nc1C
3. CC(=O)CSc1c(-c2ccccc2)c(=O)n(-c2ccccc2)c(=S)n1-c1ccccc1
4. c1ccc(C(NC2CCCCC2NCCNC2CCCCC2NC(c2ccccc2)(c2ccccc2)c2ccccc2)(c2ccccc2)c2ccccc2)cc1 (stereo unspecified)

Data returned:
1.75 µM (inactive)
95.1 µM (inactive)
> 100 µM (inactive)
26.1 µM (inactive)

###

Test system: SR
Assay: NCI tumour cell line growth inhibition, 48 h
Calls of active or inactive are those of the source. No stated cut-off is given here; in the data, active = GI50 up to about 1.1 µM and inactive = higher.
Parameter: GI50

{"Query smiles": "COc1cccc2c3cccc(OC)c3c3[nH]cnc3c12", "Parameter": "GI50", "Recorded result": "2.16 µM (inactive)"}
{"Query smiles": "Cc1ccc([N+](=O)[O-])cc1NC(=O)C(=O)Cc1occc(=O)c1O", "Parameter": "GI50", "Recorded result": "> 100 µM (inactive)"}
{"Query smiles": "Nc1nnc2n1C(=O)C(C1(C3=Nc4nnc(N)n4C3=O)Cc3ccccc3C1=O)=N2", "Parameter": "GI50", "Recorded result": "76.6 µM (inactive)"}
{"Query smiles": "CN(C)c1ccc(C(N)=O)cn1", "Parameter": "GI50", "Recorded result": "> 100 µM (inactive)"}
{"Query smiles": "Cc1nc(N)sc1C(=O)/C=C\\c1ccc2c(c1)OCO2", "Parameter": "GI50", "Recorded result": "> 100 µM (inactive)"}

Provide GI50 values for the following items, in order.
1. O/N=N/c1ccc([SH2]c2ccc3ccccc3c2)cn1
2. O=C(NCc1cccnc1)NCc1cccnc1

Data returned:
1. 21.8 µM (inactive)
2. > 100 µM (inactive)

Numbers sourced from ChEMBL document CHEMBL1201862.
